- target-or-system: FRPR-16 (Caenorhabditis elegans)
- Sequence (Q21957 1-340): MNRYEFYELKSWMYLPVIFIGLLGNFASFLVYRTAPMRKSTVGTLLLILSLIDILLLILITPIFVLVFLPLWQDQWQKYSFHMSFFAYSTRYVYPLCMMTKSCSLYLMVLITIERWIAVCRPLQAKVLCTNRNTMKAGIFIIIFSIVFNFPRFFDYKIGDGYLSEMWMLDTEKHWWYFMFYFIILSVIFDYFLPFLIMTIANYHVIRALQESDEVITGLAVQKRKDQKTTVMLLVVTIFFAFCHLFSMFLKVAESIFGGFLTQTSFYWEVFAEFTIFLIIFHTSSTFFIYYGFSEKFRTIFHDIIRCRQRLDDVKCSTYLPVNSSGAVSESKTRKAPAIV
- assay-details: In vitro GPCR activation assay (CHO-K1, aequorin, Gα16), FRPR-16
- Type: cell-based, C. elegans
- test-conditions: FRPR-16 in CHO-K1 cells with mtAEQ aequorin and human Gα16; peptide 1 pM to 10 µM; luminescence 30 s; n ≥ 6; Fig. 4i
Where a SMILES comes first, the peptide text is derived from it.
measured-parameter: EC50 (nM)
State the answer as a number, implicitly in nM.

Field: example entries. Status: answers known.
CSCC[C@H](NC(=O)[C@@H](NC(=O)CNC(=O)[C@H](Cc1ccccc1)NC(=O)[C@@H]1CCCN1C(=O)[C@H](CCC(=O)O)NC(=O)[C@H](C)NC(=O)[C@@H](N)CO)[C@@H](C)O)C(=O)N[C@@H](CCCNC(=N)N)C(=O)N[C@@H](Cc1ccccc1)C(N)=O [FLP-3-7, SAEPFGTMRFamide] (H-SAEPFGTMRF-NH2): 39.5
CSCC[C@H](NC(=O)[C@@H](NC(=O)CNC(=O)[C@H](CC(C)C)NC(=O)[C@@H]1CCCN1C(=O)[C@H](CCC(=O)O)NC(=O)[C@H](CCC(=O)O)NC(=O)[C@H](C)NC(=O)[C@@H](N)CCC(=O)O)[C@@H](C)O)C(=O)N[C@@H](CCCNC(=N)N)C(=O)N[C@@H](Cc1ccccc1)C(N)=O [FLP-3-3, EAEEPLGTMRFamide] (H-EAEEPLGTMRF-NH2): 288
CSCC[C@H](NC(=O)[C@@H](NC(=O)CNC(=O)[C@H](CC(C)C)NC(=O)[C@@H]1CCCN1C(=O)[C@@H](N)CC(N)=O)[C@@H](C)O)C(=O)N[C@@H](CCCNC(=N)N)C(=O)N[C@@H](Cc1ccccc1)C(N)=O [FLP-3-4, NPLGTMRFamide] (H-NPLGTMRF-NH2): 10.7
CSCC[C@H](NC(=O)[C@@H](NC(=O)CNC(=O)[C@H](CC(C)C)NC(=O)[C@@H]1CCCN1C(=O)[C@@H](N)[C@@H](C)O)[C@@H](C)O)C(=O)N[C@@H](CCCNC(=N)N)C(=O)N[C@@H](Cc1ccccc1)C(N)=O [FLP-3-2, TPLGTMRFamide] (H-TPLGTMRF-NH2): 31.7

Attention now shifts to the item below.
Ask | Given the molecule CSCC[C@H](NC(=O)[C@@H](NC(=O)CNC(=O)[C@H](Cc1ccccc1)NC(=O)[C@@H]1CCCN1C(=O)[C@@H](NC(=O)[C@H](CC(=O)O)NC(=O)[C@H](CC(N)=O)NC(=O)[C@H](CCC(=O)O)NC(=O)[C@@H]1CCCN1C(=O)[C@@H](N)CC(N)=O)[C@@H](C)O)[C@@H](C)O)C(=O)N[C@@H](CCCNC(=N)N)C(=O)N[C@@H](Cc1ccccc1)C(N)=O [FLP-3-9, NPENDTPFGTMRFamide] (H-NPENDTPFGTMRF-NH2) , what is its reported EC50?
Reply | 88.3

###

// reported pEC50 for each item listed
- target-or-system: FRPR-16 (Caenorhabditis elegans)
- assay-details: In vitro GPCR activation assay (CHO-K1, aequorin, Gα16), FRPR-16
- Assay type: cell-based, C. elegans
- test-conditions: FRPR-16 in CHO-K1 cells with mtAEQ aequorin and human Gα16; peptide 1 pM to 10 µM; luminescence 30 s; n ≥ 6; Fig. 4i
Where a SMILES comes first, the peptide text is derived from it.
Note: pEC50 values are expressed as the negative base-10 logarithm of concentration in M.

CSCC[C@H](NC(=O)[C@@H](NC(=O)CNC(=O)[C@H](CC(C)C)NC(=O)[C@@H]1CCCN1C(=O)[C@@H](N)CO)[C@@H](C)O)C(=O)N[C@@H](CCCNC(=N)N)C(=O)N[C@@H](Cc1ccccc1)C(N)=O [FLP-3-1, SPLGTMRFamide] (H-SPLGTMRF-NH2): 8.13

Attention now shifts to the item below.
Ask | Given the molecule CSCC[C@H](NC(=O)[C@@H](NC(=O)CNC(=O)[C@H](Cc1ccccc1)NC(=O)[C@H](CC(C)C)NC(=O)[C@H](C)NC(=O)[C@H](CC(=O)O)NC(=O)[C@H](CCC(=O)O)NC(=O)[C@H](CO)NC(=O)[C@H](C)N)[C@@H](C)O)C(=O)N[C@@H](CCCNC(=N)N)C(=O)N[C@@H](Cc1ccccc1)C(N)=O [FLP-3-5, ASEDALFGTMRFamide] (H-ASEDALFGTMRF-NH2) , what is its reported pEC50?
Reply | 7.14

###

// reported pEC50 for each item listed
- target-or-system: NPR-10B (Caenorhabditis elegans, UniProt Q6EUU1)
- Sequence (Q6EUU1 1-362): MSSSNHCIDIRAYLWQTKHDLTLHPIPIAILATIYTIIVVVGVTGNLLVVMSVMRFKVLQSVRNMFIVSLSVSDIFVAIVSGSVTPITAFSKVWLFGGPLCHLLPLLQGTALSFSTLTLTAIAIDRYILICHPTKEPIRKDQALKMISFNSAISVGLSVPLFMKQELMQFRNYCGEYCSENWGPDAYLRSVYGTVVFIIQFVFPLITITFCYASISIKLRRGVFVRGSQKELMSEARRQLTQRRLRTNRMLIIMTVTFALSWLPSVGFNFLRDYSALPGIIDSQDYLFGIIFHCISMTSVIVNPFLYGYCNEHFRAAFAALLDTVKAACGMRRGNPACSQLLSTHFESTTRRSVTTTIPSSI
- assay-details: In vitro GPCR activation assay (CHO-K1, aequorin, Gα16), NPR-10B
- Type: cell-based, C. elegans
- test-conditions: NPR-10B in CHO-K1 cells with mtAEQ aequorin and human Gα16; peptide 1 pM to 10 µM; luminescence 30 s; n ≥ 6; Fig. 4i
Where a SMILES comes first, the peptide text is derived from it.
Note: pEC50 values are expressed as the negative base-10 logarithm of concentration in M.

CSCC[C@H](NC(=O)[C@@H](NC(=O)CNC(=O)[C@H](Cc1ccccc1)NC(=O)[C@@H]1CCCN1C(=O)[C@H](CCC(=O)O)NC(=O)[C@H](C)NC(=O)[C@@H](N)CO)[C@@H](C)O)C(=O)N[C@@H](CCCNC(=N)N)C(=O)N[C@@H](Cc1ccccc1)C(N)=O [FLP-3-7, SAEPFGTMRFamide] (H-SAEPFGTMRF-NH2): 6.36
CSCC[C@H](NC(=O)[C@@H](NC(=O)CNC(=O)[C@H](CC(C)C)NC(=O)[C@@H]1CCCN1C(=O)[C@@H](N)CO)[C@@H](C)O)C(=O)N[C@@H](CCCNC(=N)N)C(=O)N[C@@H](Cc1ccccc1)C(N)=O [FLP-3-1, SPLGTMRFamide] (H-SPLGTMRF-NH2): 6.58
CSCC[C@H](NC(=O)[C@@H](NC(=O)CNC(=O)[C@H](CC(C)C)NC(=O)[C@@H]1CCCN1C(=O)[C@H](CCC(=O)O)NC(=O)[C@H](CCC(=O)O)NC(=O)[C@H](C)NC(=O)[C@@H](N)CCC(=O)O)[C@@H](C)O)C(=O)N[C@@H](CCCNC(=N)N)C(=O)N[C@@H](Cc1ccccc1)C(N)=O [FLP-3-3, EAEEPLGTMRFamide] (H-EAEEPLGTMRF-NH2): 6.06
CSCC[C@H](NC(=O)[C@@H](NC(=O)CNC(=O)[C@H](CC(C)C)NC(=O)[C@@H]1CCCN1C(=O)[C@@H](N)[C@@H](C)O)[C@@H](C)O)C(=O)N[C@@H](CCCNC(=N)N)C(=O)N[C@@H](Cc1ccccc1)C(N)=O [FLP-3-2, TPLGTMRFamide] (H-TPLGTMRF-NH2): 6.44
CSCC[C@H](NC(=O)[C@@H](NC(=O)CNC(=O)[C@H](CC(C)C)NC(=O)[C@@H]1CCCN1C(=O)[C@@H](N)CC(N)=O)[C@@H](C)O)C(=O)N[C@@H](CCCNC(=N)N)C(=O)N[C@@H](Cc1ccccc1)C(N)=O [FLP-3-4, NPLGTMRFamide] (H-NPLGTMRF-NH2): 6.37

Attention now shifts to the item below.
Ask | Given the compound CSCC[C@H](NC(=O)[C@@H](NC(=O)CNC(=O)[C@H](Cc1ccccc1)NC(=O)[C@@H]1CCCN1C(=O)[C@@H](NC(=O)[C@H](CC(=O)O)NC(=O)[C@H](CC(N)=O)NC(=O)[C@H](CCC(=O)O)NC(=O)[C@@H]1CCCN1C(=O)[C@@H](N)CC(N)=O)[C@@H](C)O)[C@@H](C)O)C(=O)N[C@@H](CCCNC(=N)N)C(=O)N[C@@H](Cc1ccccc1)C(N)=O [FLP-3-9, NPENDTPFGTMRFamide] (H-NPENDTPFGTMRF-NH2) , what is its reported pEC50?
Reply | 6.12

Values were extracted from paper PMC8408276.
